Test system: PfAP2-EXP AP2 domain (GST-tagged)
Test: gcPBM binding intensity (ln(normalized median fluorescence intensity)); higher = stronger DNA binding
In all, about 25,000 sequences were measured (“ln(normalized median fluorescence intensity)”: median about 8.6, highest 2% from about 10 on). Only a selection was taken, and the highest values are over-represented in it overall.
Reported endpoint: gcPBM binding intensity (ln)
Form field (numeric): enter value without unit.

Below, each entry is followed by its recorded gcPBM binding intensity (ln) result.
{"Residue string": "TATAAAATAAAAGTAAATATATATATATATATATAT [TGCATGCA_negctrl_site208]", "gcPBM binding intensity (ln)": 10.1}
{"Residue string": "AAAATAAAAATAAAAGCACACATAAATATATATATA [CACACA_site8409]", "gcPBM binding intensity (ln)": 9.64}

Return the recorded gcPBM binding intensity (ln) value; entry: AATAAAAATAAAAGCACACATAAATATATATATATT [CACACA_site1441]
8.66

* * *

Test system: PfAP2-EXP AP2 domain (GST-tagged)
Test: gcPBM binding intensity (ln(normalized median fluorescence intensity)); higher = stronger DNA binding
The full ranking holds about 25,000 sequences; the median of “ln(normalized median fluorescence intensity)” is about 8.6, and the highest 2% start at about 10. This excerpt belongs to a sample that is enriched for the highest values.
This listing pairs sequences with measured gcPBM binding intensity (ln).
Form field (numeric): enter value without unit.

Below, each entry is followed by its recorded gcPBM binding intensity (ln) result.
{"Residue string": "CACAGACACGGACACACACACATATATATATATATA [CACACA_site5248]", "gcPBM binding intensity (ln)": 10.2}
{"Residue string": "TACACAAGCAGACACACACACATATATATATATATA [CACACA_site1270]", "gcPBM binding intensity (ln)": 10.1}

Here's the next entry for you.
Return the recorded gcPBM binding intensity (ln) value; entry: CATACATACGGACACACACACATATATATATATATA [CACACA_site5598]
10.2
